Source listed as the kinase profiling compilation of Christmann-Franck et al. (2016).

SYSTEM UNDER TEST: PAK1 (human) (UniProt Q13153)
Sequence (Q13153 whole entry, looked up): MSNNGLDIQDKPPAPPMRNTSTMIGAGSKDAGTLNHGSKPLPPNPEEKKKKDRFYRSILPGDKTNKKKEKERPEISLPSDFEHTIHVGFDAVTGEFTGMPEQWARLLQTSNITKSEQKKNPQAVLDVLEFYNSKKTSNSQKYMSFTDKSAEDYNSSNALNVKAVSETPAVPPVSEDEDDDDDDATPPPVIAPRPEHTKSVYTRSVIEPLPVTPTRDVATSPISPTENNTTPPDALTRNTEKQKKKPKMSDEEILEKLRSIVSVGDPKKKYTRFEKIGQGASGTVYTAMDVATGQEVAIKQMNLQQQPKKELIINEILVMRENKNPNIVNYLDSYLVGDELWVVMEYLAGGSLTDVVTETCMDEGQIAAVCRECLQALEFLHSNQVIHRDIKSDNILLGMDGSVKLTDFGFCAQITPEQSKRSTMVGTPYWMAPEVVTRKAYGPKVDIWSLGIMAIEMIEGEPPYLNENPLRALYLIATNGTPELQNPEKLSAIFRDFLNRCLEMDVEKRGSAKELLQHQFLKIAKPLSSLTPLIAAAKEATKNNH
EXPERIMENT NOTES: radiometric filter-binding kinase assay, Kinase HotSpot
CONDITION INFO: compound 0.5 µM; ATP 10 µM
residual activity values, listed per item
OBSERVATION TYPE: residual activity (%)

INSERT INTO results (smiles_text, system_under_test, uom, reported) VALUES
  ('COc1cccc(-c2cc(=O)c3ccccc3o2)c1N', 'PAK1 (human) (UniProt Q13153)', '%', 97.5),
  ('Nc1ncnc2c1cnn2-c1ccccc1', 'PAK1 (human) (UniProt Q13153)', '%', 94.2),
  ('COc1cc2c(cc1OC)-c1[nH]nc(Nc3cccc(F)c3)c1C2', 'PAK1 (human) (UniProt Q13153)', '%', 96.9),
  ('N/C(=N\N=C/c1ccc(-c2cccc([N+](=O)[O-])c2)o1)N[N+](=O)[O-]', 'PAK1 (human) (UniProt Q13153)', '%', 91.4),
  ('Cn1cc(/C=C2\C(=O)Nc3ccc(S(N)(=O)=O)cc32)c2ccccc21', 'PAK1 (human) (UniProt Q13153)', '%', 90.8);

###

SYSTEM UNDER TEST: FES (human) (UniProt P07332)
Sequence (P07332 whole entry, looked up): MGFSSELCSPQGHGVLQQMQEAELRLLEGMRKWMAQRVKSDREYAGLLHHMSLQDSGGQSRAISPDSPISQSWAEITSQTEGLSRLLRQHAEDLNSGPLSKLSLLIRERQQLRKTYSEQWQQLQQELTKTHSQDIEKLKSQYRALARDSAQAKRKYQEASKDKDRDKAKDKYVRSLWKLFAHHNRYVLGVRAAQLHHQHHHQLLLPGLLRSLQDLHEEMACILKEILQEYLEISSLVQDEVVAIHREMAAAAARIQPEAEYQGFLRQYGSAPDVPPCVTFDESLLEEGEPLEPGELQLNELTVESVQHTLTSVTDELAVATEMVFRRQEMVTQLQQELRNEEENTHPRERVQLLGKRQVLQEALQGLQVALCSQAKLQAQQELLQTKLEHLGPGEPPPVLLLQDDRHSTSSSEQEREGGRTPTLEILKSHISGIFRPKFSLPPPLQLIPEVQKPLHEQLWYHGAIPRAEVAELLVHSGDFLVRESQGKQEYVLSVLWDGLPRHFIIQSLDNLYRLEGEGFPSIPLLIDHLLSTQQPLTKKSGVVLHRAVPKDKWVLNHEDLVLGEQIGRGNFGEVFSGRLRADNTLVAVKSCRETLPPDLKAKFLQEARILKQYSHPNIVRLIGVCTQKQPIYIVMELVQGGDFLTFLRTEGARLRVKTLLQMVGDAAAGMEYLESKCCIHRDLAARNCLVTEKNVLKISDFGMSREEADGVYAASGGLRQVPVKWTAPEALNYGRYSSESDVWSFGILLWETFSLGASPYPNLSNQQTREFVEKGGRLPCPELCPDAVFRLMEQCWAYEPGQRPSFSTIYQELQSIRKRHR
EXPERIMENT NOTES: radiometric filter-binding kinase assay, Kinase HotSpot
CONDITION INFO: compound 0.5 µM; ATP 10 µM
residual activity values, listed per item
OBSERVATION TYPE: residual activity (%)

INSERT INTO assay_data (smiles_text, uom, reported) VALUES
  ('COc1cc2c(Nc3ccc(Br)cc3F)ncnc2cc1OCC1CCN(C)CC1', '%', 104),
  ('COc1cc2c(N3CCN(C(=O)Nc4ccc(OC(C)C)cc4)CC3)ncnc2cc1OCCCN1CCCCC1', '%', 105),
  ('COc1cc2ncnc(Nc3ccc(O)c(Br)c3)c2cc1OC', '%', 94.9),
  ('O=C1NC(=O)c2cc(Nc3ccc(F)cc3)c(Nc3ccc(F)cc3)cc21', '%', 99.5),
  ('O=S(=O)(NCCNC/C=C/c1ccc(Br)cc1)c1cccc2cnccc12', '%', 115);

###

SYSTEM UNDER TEST: ROCK2 (human) (UniProt O75116)
Sequence (O75116 whole entry, looked up): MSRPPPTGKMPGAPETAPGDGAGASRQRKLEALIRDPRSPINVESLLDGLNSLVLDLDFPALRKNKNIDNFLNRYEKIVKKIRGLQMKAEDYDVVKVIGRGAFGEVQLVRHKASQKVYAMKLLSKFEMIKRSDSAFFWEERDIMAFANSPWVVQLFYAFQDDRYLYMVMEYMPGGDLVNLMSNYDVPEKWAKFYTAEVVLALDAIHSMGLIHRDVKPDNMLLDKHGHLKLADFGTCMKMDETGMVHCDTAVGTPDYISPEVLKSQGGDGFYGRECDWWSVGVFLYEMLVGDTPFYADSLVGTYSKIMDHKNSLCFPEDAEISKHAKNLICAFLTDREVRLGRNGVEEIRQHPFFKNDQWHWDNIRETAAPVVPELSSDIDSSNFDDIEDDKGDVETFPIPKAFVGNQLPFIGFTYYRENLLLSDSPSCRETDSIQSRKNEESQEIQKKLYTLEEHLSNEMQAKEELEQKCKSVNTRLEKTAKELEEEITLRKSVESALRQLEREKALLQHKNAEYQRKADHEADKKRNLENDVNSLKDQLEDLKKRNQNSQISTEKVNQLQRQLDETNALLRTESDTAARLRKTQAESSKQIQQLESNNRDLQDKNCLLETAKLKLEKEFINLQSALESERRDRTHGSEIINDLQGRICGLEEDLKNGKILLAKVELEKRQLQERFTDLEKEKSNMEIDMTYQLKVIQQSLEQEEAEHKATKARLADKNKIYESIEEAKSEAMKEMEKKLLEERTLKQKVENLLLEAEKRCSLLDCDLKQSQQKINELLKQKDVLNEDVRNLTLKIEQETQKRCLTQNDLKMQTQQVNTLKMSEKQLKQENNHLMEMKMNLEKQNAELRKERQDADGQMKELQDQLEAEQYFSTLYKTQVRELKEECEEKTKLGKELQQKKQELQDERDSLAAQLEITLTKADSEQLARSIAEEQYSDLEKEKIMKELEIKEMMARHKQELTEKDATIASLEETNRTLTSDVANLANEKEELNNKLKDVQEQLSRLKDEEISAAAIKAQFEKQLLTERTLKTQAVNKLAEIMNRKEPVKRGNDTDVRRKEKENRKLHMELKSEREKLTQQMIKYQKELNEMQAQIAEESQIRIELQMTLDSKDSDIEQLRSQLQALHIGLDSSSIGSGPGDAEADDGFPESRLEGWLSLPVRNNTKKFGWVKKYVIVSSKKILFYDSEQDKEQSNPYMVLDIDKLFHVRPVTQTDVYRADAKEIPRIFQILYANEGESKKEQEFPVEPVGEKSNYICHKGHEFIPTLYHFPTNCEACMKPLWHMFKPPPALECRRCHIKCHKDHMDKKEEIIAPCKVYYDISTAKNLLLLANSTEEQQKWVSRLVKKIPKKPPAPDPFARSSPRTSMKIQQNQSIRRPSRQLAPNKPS
EXPERIMENT NOTES: radiometric filter-binding kinase assay, Kinase HotSpot
CONDITION INFO: compound 0.5 µM; ATP 10 µM
We use 90% as the dividing line for residual activity: on or above the line is t, below is f.

INSERT INTO measurements (smiles_text, class) VALUES
  ('O=S(=O)(NCCNC/C=C/c1ccc(Br)cc1)c1cccc2cnccc12', 'f'),
  ('O=c1[nH]c2ccccc2n1C1CCN(Cc2ccc(-c3nc4cc5[nH]cnc5cc4nc3-c3ccccc3)cc2)CC1', 't'),
  ('N#CCCc1ccc2c(c1)-c1[nH]c3ccc([N+](=O)[O-])cc3c1CC(=O)N2', 'f'),
  ('Nc1ncnc2c1cnn2-c1ccccc1', 'f'),
  ('O=C1NC(=O)c2cc(Nc3ccc(F)cc3)c(Nc3ccc(F)cc3)cc21', 't'),
  ('N#Cc1c(NC(=O)c2cccc3ccccc23)sc2c1CCCC2', 't'),
  ('O=c1c2ccccc2[nH]c(=S)n1CCN1CCC(=C(c2ccc(F)cc2)c2ccc(F)cc2)CC1', 't');
